system: Staphylococcus aureus; test: Antibacterial activity against Staphylococcus aureus ATCC 33591 after 24 hrs by microbroth dilution method; format: functional; details: ATCC 33591, 24 h
attribute-measured: MIC

Ask: Which MIC is reported for this molecule? CN1CCN(c2ccc3nc(-c4ccc(OCc5cn(CCN=[N+]=[N-])nn5)cc4)[nH]c3c2)CC1
Result: 16 to 32 µg/mL

Ask: Next molecule up: CCOc1ccc(-c2nc3ccc(N4CCN(C)CC4)cc3[nH]2)cc1
Result: 16 to 32 µg/mL

Ask: Next molecule up: CN1CCN(c2ccc3nc(-c4ccc5nc(-c6ccc(O)cc6)[nH]c5c4)[nH]c3c2)CC1.Cl.Cl.Cl
Result: 16 to 32 µg/mL

Ask: Next molecule up: C#Cc1ccc(-c2cn(CCOc3ccc(-c4nc5ccc(N6CCN(C)CC6)cc5[nH]4)cc3)nn2)cc1
Result: 16 µg/mL

Ask: Next molecule up: CN1CCN(c2cc(C(=O)O)c3nc(-c4ccc(O)cc4)[nH]c3c2)CC1
Result: > 32 µg/mL

Ask: Next molecule up: C#CCOCCCCCCOc1ccc(-c2nc3ccc(-c4nc5ccc(N6CCN(C)CC6)cc5[nH]4)cc3[nH]2)cc1
Result: 16 to 32 µg/mL

Ask: Next molecule up: C#CCOCCCCCCOc1ccc(-c2nc3ccc(N4CCN(C)CC4)cc3[nH]2)cc1
Result: 16 to 32 µg/mL

Ask: Next molecule up: C#CCOCCOCCOCCOCCOCCOCCOc1ccc(-c2nc3ccc(-c4nc5ccc(N6CCN(C)CC6)cc5[nH]4)cc3[nH]2)cc1
Result: 16 to 32 µg/mL

Ask: Next molecule up: C#CCOc1ccc(-c2nc3ccc(N4CCN(C)CC4)cc3[nH]2)cc1
Result: 16 to 32 µg/mL

Ask: Next molecule up: CN1CCN(c2ccc3nc(-c4ccc(OCCCN)cc4)[nH]c3c2)CC1
Result: > 32 µg/mL

Ask: Next molecule up: CN1CCN(c2ccc3nc(-c4ccc(OCCN=[N+]=[N-])cc4)[nH]c3c2)CC1
Result: 16 to 32 µg/mL

Ask: Next molecule up: Oc1ccc(-c2nc3ccccc3[nH]2)cc1
Result: 16 to 32 µg/mL

Ask: Next molecule up: C#CCOCCCCCCCCOc1ccc(-c2nc3ccc(-c4nc5ccc(N6CCN(C)CC6)cc5[nH]4)cc3[nH]2)cc1
Result: 16 to 32 µg/mL

Ask: Next molecule up: C#CCOCCCCCCCCCCOc1ccc(-c2nc3ccc(-c4nc5ccc(N6CCN(C)CC6)cc5[nH]4)cc3[nH]2)cc1
Result: > 32 µg/mL

Ask: Next molecule up: CN1CCN(c2ccc3nc(-c4ccc(OCc5cn(CCCCN=[N+]=[N-])nn5)cc4)[nH]c3c2)CC1
Result: 16 µg/mL

Ask: Next molecule up: COC(=O)c1cc(N2CCN(C)CC2)cc2[nH]c(-c3ccc(O)cc3)nc12
Result: 16 to 32 µg/mL

Ask: Next molecule up: CN1CCN(c2ccc3nc(-c4ccc(OCCCNC(=O)OC(C)(C)C)cc4)[nH]c3c2)CC1
Result: 16 to 32 µg/mL

Ask: Next molecule up: CCOc1ccc(-c2nc3cc(-c4nc5cc(N6CCN(C)CC6)ccc5[nH]4)ccc3[nH]2)cc1
Result: 2 to 4 µg/mL

Ask: Next molecule up: C#CCOCCCCCCCCCCCCOc1ccc(-c2nc3ccc(-c4nc5ccc(N6CCN(C)CC6)cc5[nH]4)cc3[nH]2)cc1
Result: 16 to 32 µg/mL

Ask: Next molecule up: C#CCCCCCCc1cn(CCOc2ccc(-c3nc4ccc(N5CCN(C)CC5)cc4[nH]3)cc2)nn1
Result: 16 to 32 µg/mL

###

system: DU-145; assay: Cytotoxicity against human DU145 cells after 48 hrs by SRB assay; type: cell-based; conditions: human, du-145, 48 h
attribute-measured: Activity

// solved cases for Activity follow
Ask: Test system DU-145; read-out Activity; what value for C#CCCCCOc1ccc(-c2nc3ccc(-c4nc5ccc(N6CCN(C)CC6)cc5[nH]4)cc3[nH]2)cc1 ?
Result: Toxic

Ask: Next compound up: C#CCOc1ccc(-c2nc3ccc(-c4nc5ccc(N6CCN(C)CC6)cc5[nH]4)cc3[nH]2)cc1
Result: Toxic

Ask: Next compound up: C#CCOCCCCOc1ccc(-c2nc3ccc(-c4nc5ccc(N6CCN(C)CC6)cc5[nH]4)cc3[nH]2)cc1
Result: Toxic

Ask: Next compound up: C#CCOCCCCCCOc1ccc(-c2nc3ccc(-c4nc5ccc(N6CCN(C)CC6)cc5[nH]4)cc3[nH]2)cc1
Result: Toxic

// below: Activity requested for another compound
Ask: Test system DU-145; read-out Activity; what value for C#CCOCCCCCCCCOc1ccc(-c2nc3ccc(-c4nc5ccc(N6CCN(C)CC6)cc5[nH]4)cc3[nH]2)cc1 ?
Result: Toxic

###

tested on: Shigella flexneri; experiment: Antibacterial activity against Shigella flexneri 2457NR517 after 24 hrs by microbroth dilution method; format: functional; conditions: 2457NR517, 24 h
attribute-measured: MIC

Ask: Which MIC is reported for this compound? CN1CCN(c2ccc3nc(-c4ccc(OCc5cn(CCN=[N+]=[N-])nn5)cc4)[nH]c3c2)CC1
Result: > 32 µg/mL

Ask: Next compound up: C#CCOCCCCCCOc1ccc(-c2nc3ccc(N4CCN(C)CC4)cc3[nH]2)cc1
Result: > 32 µg/mL

Ask: Next compound up: COC(=O)c1cc(N2CCN(C)CC2)cc2[nH]c(-c3ccc(O)cc3)nc12
Result: > 32 µg/mL

Ask: Next compound up: C#CCOCCCCOc1ccc(-c2nc3ccc(-c4nc5ccc(N6CCN(C)CC6)cc5[nH]4)cc3[nH]2)cc1
Result: 4 µg/mL

Ask: Next compound up: C#CCCCCOc1ccc(-c2nc3ccc(-c4nc5ccc(N6CCN(C)CC6)cc5[nH]4)cc3[nH]2)cc1
Result: 8 µg/mL

Ask: Next compound up: C#CCOCCCCCCCCCCCCOc1ccc(-c2nc3ccc(-c4nc5ccc(N6CCN(C)CC6)cc5[nH]4)cc3[nH]2)cc1
Result: > 32 µg/mL

Ask: Next compound up: C#CCCCCCCCCCOc1ccc(-c2nc3ccc(-c4nc5ccc(N6CCN(C)CC6)cc5[nH]4)cc3[nH]2)cc1
Result: > 32 µg/mL

Ask: Next compound up: CCOc1ccc(-c2nc3cc(-c4nc5cc(N6CCN(C)CC6)ccc5[nH]4)ccc3[nH]2)cc1
Result: 1 to 2 µg/mL

###

Provide the recorded MIC for the entries that follow.
tested on: Shigella flexneri; assay: Antibacterial activity against Shigella flexneri 2457NR517 after 24 hrs by microbroth dilution method; format: functional; details: 2457NR517, 24 h

Ask: Test system Shigella flexneri; read-out MIC; what value for CN1CCN(c2ccc3nc(-c4ccc(OCCN=[N+]=[N-])cc4)[nH]c3c2)CC1 ?
Result: > 32 µg/mL

Ask: Next molecule up: C#CCOc1ccc(-c2nc3ccc(N4CCN(C)CC4)cc3[nH]2)cc1
Result: > 32 µg/mL

Ask: Next molecule up: C#CCOCCCCCCCCOc1ccc(-c2nc3ccc(-c4nc5ccc(N6CCN(C)CC6)cc5[nH]4)cc3[nH]2)cc1
Result: > 38 µg/mL

Ask: Next molecule up: CN1CCN(c2ccc3nc(-c4ccc(OCCCN)cc4)[nH]c3c2)CC1
Result: > 32 µg/mL

Ask: Next molecule up: C#Cc1ccc(-c2cn(CCOc3ccc(-c4nc5ccc(N6CCN(C)CC6)cc5[nH]4)cc3)nn2)cc1
Result: > 32 µg/mL

Ask: Next molecule up: C#CCOc1ccc(-c2nc3ccc(-c4nc5ccc(N6CCN(C)CC6)cc5[nH]4)cc3[nH]2)cc1
Result: 1 to 2 µg/mL

Ask: Next molecule up: C#CCCCCCCc1cn(CCOc2ccc(-c3nc4ccc(N5CCN(C)CC5)cc4[nH]3)cc2)nn1
Result: > 32 µg/mL

Ask: Next molecule up: C#CCOCCCCCCCCCCOc1ccc(-c2nc3ccc(-c4nc5ccc(N6CCN(C)CC6)cc5[nH]4)cc3[nH]2)cc1
Result: > 32 µg/mL

Ask: Next molecule up: CN1CCN(c2ccc3nc(-c4ccc(OCCCNC(=O)OC(C)(C)C)cc4)[nH]c3c2)CC1
Result: > 32 µg/mL

###

Provide the recorded MIC for the entries that follow.
test system: Shigella flexneri; test: Antibacterial activity against Shigella flexneri 2457NR517 after 24 hrs by microbroth dilution method; assay type: functional; details: 2457NR517, 24 h

Ask: Test system Shigella flexneri; read-out MIC; what value for Oc1ccc(-c2nc3ccccc3[nH]2)cc1 ?
Result: > 32 µg/mL

Ask: Next molecule up: CCOc1ccc(-c2nc3ccc(N4CCN(C)CC4)cc3[nH]2)cc1
Result: > 32 µg/mL

Ask: Next molecule up: CN1CCN(c2ccc3nc(-c4ccc(OCc5cn(CCCCN=[N+]=[N-])nn5)cc4)[nH]c3c2)CC1
Result: > 32 µg/mL

Ask: Next molecule up: C#CCOCCOCCOCCOCCOCCOCCOc1ccc(-c2nc3ccc(-c4nc5ccc(N6CCN(C)CC6)cc5[nH]4)cc3[nH]2)cc1
Result: ≥ 32 µg/mL

Ask: Next molecule up: C#CCOCCCCCCOc1ccc(-c2nc3ccc(-c4nc5ccc(N6CCN(C)CC6)cc5[nH]4)cc3[nH]2)cc1
Result: > 32 µg/mL
